This collection of values is drawn from PubChem BioAssay AID1918946.

Measured viability, T/C accompanies every entry in the list below.
- Tested on: 885512-296-R-J2-PDC complex spheroid viability
- testMethodNotes: Anticancer human tumor 885512-296-R-J2-PDC patient-derived breast carcinoma cell line growth inhibition
- cond: second compound 10 µM; first compound 0.000316 µM; hits give low values
Write the answer as a number in %, unit excluded.

{"compound": "CC[C@@]1(O)C(=O)OCc2c1cc1n(c2=O)Cc2cc3c(CN(C)C)c(O)ccc3nc2-1 + NC1CC1c1ccc(-c2cccc(O)c2)cc1", "systemUnderTest": "885512-296-R-J2-PDC complex spheroid viability", "parameter": "viability, T/C", "displayUnit": "%", "observed": 72.7}
{"compound": "CC(C)CC(NC(=O)C(Cc1ccccc1)NC(=O)c1cnccn1)B(O)O (stereo not drawn) + NC1CCC(NC2CC2c2ccccc2)CC1", "systemUnderTest": "885512-296-R-J2-PDC complex spheroid viability", "parameter": "viability, T/C", "displayUnit": "%", "observed": 138}
{"compound": "CC(C)CC(NC(=O)C(Cc1ccccc1)NC(=O)c1cnccn1)B(O)O (stereo not drawn) + NC1CC1c1ccc(-c2cccc(O)c2)cc1", "systemUnderTest": "885512-296-R-J2-PDC complex spheroid viability", "parameter": "viability, T/C", "displayUnit": "%", "observed": 11.2}

QUERY: Return viability, T/C measured with 885512-296-R-J2-PDC complex spheroid viability given this compound: CC(C)CC(NC(=O)CNC(=O)c1cc(Cl)ccc1Cl)B1OC(=O)CC(CC(=O)O)(C(=O)O)O1 (stereo not drawn) + NC1CCC(NC2CC2c2ccccc2)CC1
RESULT: 107

QUERY: Then CC(C)CC(NC(=O)CNC(=O)c1cc(Cl)ccc1Cl)B1OC(=O)CC(CC(=O)O)(C(=O)O)O1 (stereo not drawn) + NC1CC1c1ccc(-c2cccc(O)c2)cc1 ?
RESULT: 82.8

* * *

- Tested on: 885512-296-R-J2-PDC complex spheroid viability
- testMethodNotes: Anticancer human tumor 885512-296-R-J2-PDC cell line growth inhibition; active = viability on the fitted dose curve at most 10% of control; inactive = the rest;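 note: spheroids exposed to agents for 7 days before viability read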
- cond: second compound 0.316 µM; first compound 0.0949 µM
Pick one and only one: active, inactive

{"compound": "O=C(C=Cc1cccc(S(=O)(=O)Nc2ccccc2)c1)NO + NC1CCC(NC2CC2c2ccccc2)CC1", "group": "inactive"}
{"compound": "CCc1c2c(nc3ccc(O)cc13)-c1cc3c(c(=O)n1C2)COC(=O)[C@]3(O)CC + NC1CC1c1ccc(-c2cccc(O)c2)cc1", "group": "active"}

QUERY: Assay outcome for CCc1c2c(nc3ccc(O)cc13)-c1cc3c(c(=O)n1C2)COC(=O)[C@]3(O)CC + NC1CCC(NC2CC2c2ccccc2)CC1 : what was it?
RESULT: active

QUERY: Now try NS(=O)(=O)OCC1CC(n2ccc3c(NC4CCc5ccccc54)ncnc32)CC1O (centres undefined) + NC1CCC(NC2CC2c2ccccc2)CC1 .
RESULT: active

QUERY: Query Nc1ncn(C2CC(O)C(CO)S2)c(=O)n1 (centres undefined) + NC1CC1c1ccc(-c2cccc(O)c2)cc1 next
RESULT: active

QUERY: What would you report for CCN(c1cc(-c2ccc(CN3CCOCC3)cc2)cc(C(=O)NCc2c(C)cc(C)[nH]c2=O)c1C)C1CCOCC1 + NC1CC1c1ccc(-c2cccc(O)c2)cc1 ?
RESULT: inactive

QUERY: Would you kindly repeat that for Nc1ccn(C2OC(CO)C(O)C2(F)F)c(=O)n1 (centres undefined) + NC1CC1c1ccc(-c2cccc(O)c2)cc1 ?
RESULT: active

QUERY: Next up: Nc1ccccc1NC(=O)c1ccc(CNC(=O)OCc2cccnc2)cc1 + NC1CC1c1ccc(-c2cccc(O)c2)cc1
RESULT: inactive

QUERY: Next compound up: Nc1ccn(C2OC(CO)C(O)C2(F)F)c(=O)n1 (centres undefined) + NC1CCC(NC2CC2c2ccccc2)CC1
RESULT: active

* * *

- Test system: 885512-296-R-J2-PDC complex spheroid viability
- testMethodNotes: Anticancer human tumor 885512-296-R-J2-PDC cell line growth inhibition;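 note: spheroids exposed to agents for 7 days before viability read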
- cond: second compound 0.316 µM; first compound 0.0316 µM; hits give low values
parameter: viability, T/C (%)
Hi! Could you send only the number? It should be in %, unit omitted.

Example cases with answers are listed next.
{"molecule": "COc1cc(Nc2ncc3c(n2)-c2ccc(Cl)cc2C(c2c(F)cccc2OC)=NC3)ccc1C(=O)O + NC1CCC(NC2CC2c2ccccc2)CC1", "displayUnit": "%", "viability, T/C": 34.2}
{"molecule": "Cn1ncnc1C1c2n[nH]c(=O)c3cc(F)cc(c23)NC1c1ccc(F)cc1 (configuration not stated) + NC1CCC(NC2CC2c2ccccc2)CC1", "displayUnit": "%", "viability, T/C": 44}
{"molecule": "Nc1ncn(C2CC(O)C(CO)O2)c(=O)n1 (configuration not stated) + NC1CC1c1ccc(-c2cccc(O)c2)cc1", "displayUnit": "%", "viability, T/C": 70.5}
{"molecule": "CC1COCCN1c1cc(-c2ccnn2C)c2ccnc(-c3ccn[nH]3)c2n1 (configuration not stated) + NC1CCC(NC2CC2c2ccccc2)CC1", "displayUnit": "%", "viability, T/C": 4.73}
{"molecule": "CC1COCCN1c1cc(-c2ccnn2C)c2ccnc(-c3ccn[nH]3)c2n1 (configuration not stated) + NC1CC1c1ccc(-c2cccc(O)c2)cc1", "displayUnit": "%", "viability, T/C": 2.44}
{"molecule": "CC1COCCN1c1cc(C2(S(C)(=N)=O)CC2)nc(-c2ccnc3[nH]ccc23)n1 (configuration not stated) + NC1CCC(NC2CC2c2ccccc2)CC1", "displayUnit": "%", "viability, T/C": 94.7}

Now let's try a different one.
QUERY: Please look up its viability, T/C: CC(C)CC(NC(=O)CNC(=O)c1cc(Cl)ccc1Cl)B1OC(=O)CC(CC(=O)O)(C(=O)O)O1 (configuration not stated) + NC1CCC(NC2CC2c2ccccc2)CC1
RESULT: 3.92

* * *

- Tested on: 885512-296-R-J2-PDC complex spheroid viability
- testMethodNotes: Anticancer human tumor 885512-296-R-J2-PDC cell line growth inhibition; active = viability on the fitted dose curve at most 10% of control; inactive = the rest;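 note: spheroids exposed to agents for 7 days before viability read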
- cond: second compound 3.16 µM; first compound 1 µM
Your answer must be one of the following: Yes = active, No = inactive

Examples with answers:
{"molecule": "CC1COCCN1c1cc(C2(S(C)(=N)=O)CC2)nc(-c2ccnc3[nH]ccc23)n1 (centres undefined) + NC1CCC(NC2CC2c2ccccc2)CC1", "group": "Yes"}
{"molecule": "O=C(c1cc(Cc2n[nH]c(=O)c3ccccc23)ccc1F)N1CCN(C(=O)C2CC2)CC1 + NC1CC1c1ccc(-c2cccc(O)c2)cc1", "group": "No"}
{"molecule": "CC1COCCN1c1cc(-c2ccnn2C)c2ccnc(-c3ccn[nH]3)c2n1 (centres undefined) + NC1CC1c1ccc(-c2cccc(O)c2)cc1", "group": "Yes"}

Next, consider the following molecule.
QUERY: For this molecule, state the assay outcome: CC1(C)CCC(CN2CCN(c3ccc(C(=O)NS(=O)(=O)c4ccc(NCC5CCOCC5)c([N+](=O)[O-])c4)c(Oc4cnc5[nH]ccc5c4)c3)CC2)=C(c2ccc(Cl)cc2)C1 + NC1CCC(NC2CC2c2ccccc2)CC1
RESULT: No

* * *

- Test system: 885512-296-R-J2-PDC complex spheroid viability
- testMethodNotes: Anticancer human tumor 885512-296-R-J2-PDC cell line growth inhibition;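 note: spheroids exposed to agents for 7 days before viability read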
- cond: second compound 10 µM; first compound 0.0949 µM; hits give low values
Labelling: viability, T/C reported below 5% becomes yes; at or above becomes no.

{"molecule": "NS(=O)(=O)OCC1CC(n2ccc3c(NC4CCc5ccccc54)ncnc32)CC1O (configuration not stated) + NC1CCC(NC2CC2c2ccccc2)CC1", "group": "yes"}
{"molecule": "O=C(C=Cc1cccc(S(=O)(=O)Nc2ccccc2)c1)NO + NC1CCC(NC2CC2c2ccccc2)CC1", "group": "no"}
{"molecule": "COc1cc(C2c3cc4c(cc3C(OC3OC5COC(C)OC5C(O)C3O)C3COC(=O)C23)OCO4)cc(OC)c1O (configuration not stated) + NC1CC1c1ccc(-c2cccc(O)c2)cc1", "group": "no"}
{"molecule": "CCc1c2c(nc3ccc(O)cc13)-c1cc3c(c(=O)n1C2)COC(=O)[C@]3(O)CC + NC1CCC(NC2CC2c2ccccc2)CC1", "group": "yes"}
{"molecule": "O=C(C=Cc1cccc(S(=O)(=O)Nc2ccccc2)c1)NO + NC1CC1c1ccc(-c2cccc(O)c2)cc1", "group": "no"}

QUERY: Could you please tell me whether viability, T/C recorded for Nc1ccccc1NC(=O)c1ccc(CNC(=O)OCc2cccnc2)cc1 + NC1CC1c1ccc(-c2cccc(O)c2)cc1 is less than 5%?
RESULT: no

QUERY: Could you do the same for CCN(c1cc(-c2ccc(CN3CCOCC3)cc2)cc(C(=O)NCc2c(C)cc(C)[nH]c2=O)c1C)C1CCOCC1 + NC1CC1c1ccc(-c2cccc(O)c2)cc1 , please?
RESULT: no

QUERY: Also Nc1ccccc1NC(=O)c1ccc(CNC(=O)OCc2cccnc2)cc1 + NC1CCC(NC2CC2c2ccccc2)CC1 , if possible.
RESULT: no

QUERY: Again, but for Nc1ccn(C2OC(CO)C(O)C2(F)F)c(=O)n1 (configuration not stated) + NC1CC1c1ccc(-c2cccc(O)c2)cc1
RESULT: yes

QUERY: What would you report for Nc1ncn(C2CC(O)C(CO)S2)c(=O)n1 (configuration not stated) + NC1CCC(NC2CC2c2ccccc2)CC1 ?
RESULT: no

QUERY: Also need CCc1c2c(nc3ccc(O)cc13)-c1cc3c(c(=O)n1C2)COC(=O)[C@]3(O)CC + NC1CC1c1ccc(-c2cccc(O)c2)cc1 , thanks.
RESULT: yes
